System: MOLT-4
Experiment: NCI tumour cell line growth inhibition, 48 h
Active and inactive are the calls of the source. Rule as the data show it: active = GI50 up to about 1.1 µM and inactive = higher.
Use one of these outcomes when replying: YES for active, NO for inactive

Exercise: Outcome logged for `COc1ccc2nc(-c3ccc(OCc4ccccc4)cc3)ccc2c1` in this assay:
Key: NO

Exercise: Outcome logged for CCCCON1C[C@@H](O)C(O)[C@@H](O)C1 (some centres undefined) in this assay:
Key: NO

Exercise: Outcome logged for CC(C)[C@@H](C)CC[C@@H](C)C1CC=C2[C@@H]3CCC4C[C@@H](O[Si](C)(C)C(C)(C)C)CC[C@]4(C)C3CC[C@@]21C (some centres undefined) in this assay:
Key: NO

Exercise: Outcome logged for C=C(CC[C@@H](C)[C@H]1CC[C@@]2(C)C3=C(CC[C@]12C)[C@@]1(C)CC[C@H](O)[C@@H](C)C1CC3)C(C)C (some centres undefined) in this assay:
Key: YES
